biological target: PLK1 (Homo sapiens, UniProt P53350); construct: purchased Research Biology Corp. (http://www.reactionbiology.com); test: Kinase Profiler, residual kinase activity; type: biochemical; conditions: PLK1; inhibitor at 500 nM; read-out: percentage of the remaining kinase activity
Sequence (P53350 whole entry): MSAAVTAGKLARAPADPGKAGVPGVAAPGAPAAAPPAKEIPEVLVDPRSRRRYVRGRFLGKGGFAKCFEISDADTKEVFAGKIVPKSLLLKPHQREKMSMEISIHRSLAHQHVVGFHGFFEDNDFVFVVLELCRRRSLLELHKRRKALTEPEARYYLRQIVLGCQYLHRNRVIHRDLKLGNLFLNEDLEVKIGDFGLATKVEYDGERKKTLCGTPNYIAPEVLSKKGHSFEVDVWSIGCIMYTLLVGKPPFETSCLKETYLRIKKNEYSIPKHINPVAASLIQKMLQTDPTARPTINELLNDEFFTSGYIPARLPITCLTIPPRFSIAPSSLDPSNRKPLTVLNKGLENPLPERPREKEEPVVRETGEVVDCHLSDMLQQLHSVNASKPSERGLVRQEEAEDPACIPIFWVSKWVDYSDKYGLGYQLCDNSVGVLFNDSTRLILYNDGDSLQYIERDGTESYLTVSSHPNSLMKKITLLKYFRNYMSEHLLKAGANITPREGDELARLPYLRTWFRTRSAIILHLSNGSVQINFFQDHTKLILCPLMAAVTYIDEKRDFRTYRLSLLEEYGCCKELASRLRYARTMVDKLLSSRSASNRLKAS
parameter: remaining activity at 0.5 µM (%)

COC1C(N(C)C(=O)C(N)CCC(=O)O)CC2OC1(C)n1c3ccccc3c3c4c(c5c6ccccc6n2c5c31)C(=O)NC4 (stereo not shown) = 80.9
COC1C(N(C)C(=O)C(N)Cc2cn(C(=O)OC(C)(C)C)c3ccccc23)CC2OC1(C)n1c3ccccc3c3c4c(c5c6ccccc6n2c5c31)C(=O)NC4 (stereo not shown) = 97.9
COC1C(N(C)C(=O)C(N)CCC(=O)OC(C)(C)C)CC2OC1(C)n1c3ccccc3c3c4c(c5c6ccccc6n2c5c31)C(=O)NC4 (stereo not shown) = 104
COC1C(N(C)Cc2ccc(-c3ccccc3)cc2)CC2OC1(C)n1c3ccccc3c3c4c(c5c6ccccc6n2c5c31)C(=O)NC4 (stereo not shown) = 95.9
COC1C(N(C)C(=O)C(N)Cc2ccc(OC(C)(C)C)cc2)CC2OC1(C)n1c3ccccc3c3c4c(c5c6ccccc6n2c5c31)C(=O)NC4 (stereo not shown) = 104
COC1C(N(C)C(=O)C(N)Cc2ccc(O)cc2)CC2OC1(C)n1c3ccccc3c3c4c(c5c6ccccc6n2c5c31)C(=O)NC4 (stereo not shown) = 99.2
COC1C(N(C)C(=O)C(N)Cc2c[nH]cn2)CC2OC1(C)n1c3ccccc3c3c4c(c5c6ccccc6n2c5c31)C(=O)NC4 (stereo not shown) = 93.8

* * *

target: PRKACA (Homo sapiens, UniProt P17612); construct: purchased Research Biology Corp. (http://www.reactionbiology.com); assay: Kinase Profiler, residual kinase activity; type: biochemical; settings: PRKACA; inhibitor at 500 nM; read-out: percentage of the remaining kinase activity
parameter: remaining activity at 0.5 µM (%)

COC1C(N(C)Cc2ccc(-c3ccccc3)cc2)CC2OC1(C)n1c3ccccc3c3c4c(c5c6ccccc6n2c5c31)C(=O)NC4 (stereo not drawn) [Compound 9] = 24.6

[a] COC1C(N(C)C(=O)C(N)Cc2ccc(O)cc2)CC2OC1(C)n1c3ccccc3c3c4c(c5c6ccccc6n2c5c31)C(=O)NC4 (stereo not drawn) [Compound 5]
[b] COC1C(N(C)C(=O)C(N)Cc2c[nH]cn2)CC2OC1(C)n1c3ccccc3c3c4c(c5c6ccccc6n2c5c31)C(=O)NC4 (stereo not drawn) [Compound 1]
Looking only at measured remaining activity at 0.5 µM, which entry is lower, a or b ? Lab log: write the label of the selected item as the result. b
(b: 13.9%, a: 32.6%)

* * *

Biological target: STK11 (Homo sapiens)
Sequence (Q15831 1-433): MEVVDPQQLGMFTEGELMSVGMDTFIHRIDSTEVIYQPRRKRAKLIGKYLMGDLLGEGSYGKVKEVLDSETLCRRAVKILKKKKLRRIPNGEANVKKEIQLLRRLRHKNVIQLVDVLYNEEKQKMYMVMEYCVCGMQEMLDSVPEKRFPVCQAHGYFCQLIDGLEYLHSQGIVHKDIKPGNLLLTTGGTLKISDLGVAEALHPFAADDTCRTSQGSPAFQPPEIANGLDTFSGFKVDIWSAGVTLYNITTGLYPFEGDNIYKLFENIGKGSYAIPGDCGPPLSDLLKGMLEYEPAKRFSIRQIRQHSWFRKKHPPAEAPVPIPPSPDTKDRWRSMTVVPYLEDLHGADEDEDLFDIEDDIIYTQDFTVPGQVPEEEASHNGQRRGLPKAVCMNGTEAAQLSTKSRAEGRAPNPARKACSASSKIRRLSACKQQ
Sequence (Q7RTN6 1-431 partner): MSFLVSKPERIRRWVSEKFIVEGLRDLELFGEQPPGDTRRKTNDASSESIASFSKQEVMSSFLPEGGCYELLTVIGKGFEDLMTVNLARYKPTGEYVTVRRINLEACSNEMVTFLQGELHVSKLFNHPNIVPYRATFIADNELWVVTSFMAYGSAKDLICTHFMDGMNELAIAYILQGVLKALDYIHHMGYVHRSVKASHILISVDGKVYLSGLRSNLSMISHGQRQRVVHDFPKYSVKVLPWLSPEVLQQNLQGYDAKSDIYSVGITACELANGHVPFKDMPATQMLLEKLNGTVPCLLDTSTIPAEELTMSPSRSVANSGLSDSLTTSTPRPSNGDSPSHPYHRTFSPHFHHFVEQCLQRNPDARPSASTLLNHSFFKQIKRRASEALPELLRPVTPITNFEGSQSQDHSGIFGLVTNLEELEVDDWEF
Sequence (Q9Y376 1-341 partner): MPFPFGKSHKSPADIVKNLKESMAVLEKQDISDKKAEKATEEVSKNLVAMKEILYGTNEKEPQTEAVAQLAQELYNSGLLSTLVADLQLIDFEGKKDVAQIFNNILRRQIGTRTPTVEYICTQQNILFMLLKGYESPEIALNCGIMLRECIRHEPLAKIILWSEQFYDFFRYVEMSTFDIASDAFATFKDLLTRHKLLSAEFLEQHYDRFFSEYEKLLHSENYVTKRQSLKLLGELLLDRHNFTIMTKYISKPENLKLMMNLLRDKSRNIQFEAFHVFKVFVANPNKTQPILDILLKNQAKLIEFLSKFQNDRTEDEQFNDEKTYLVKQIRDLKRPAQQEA
Test: Kinase Profiler, residual kinase activity
Assay type: biochemical
Conditions: STK11; inhibitor at 500 nM; read-out: percentage of the remaining kinase activity
parameter: remaining activity at 0.5 µM (%)

COC1C(N(C)C(=O)C(N)CCC(=O)O)CC2OC1(C)n1c3ccccc3c3c4c(c5c6ccccc6n2c5c31)C(=O)NC4 (stereo not shown) = 79.9
COC1C(N(C)C(=O)C(N)Cc2ccc(OC(C)(C)C)cc2)CC2OC1(C)n1c3ccccc3c3c4c(c5c6ccccc6n2c5c31)C(=O)NC4 (stereo not shown) = 113
COC1C(N(C)C(=O)C(N)CCC(=O)OC(C)(C)C)CC2OC1(C)n1c3ccccc3c3c4c(c5c6ccccc6n2c5c31)C(=O)NC4 (stereo not shown) = 104
COC1C(N(C)C(=O)C(N)Cc2c[nH]cn2)CC2OC1(C)n1c3ccccc3c3c4c(c5c6ccccc6n2c5c31)C(=O)NC4 (stereo not shown) = 88.7
COC1C(N(C)C(=O)C(N)Cc2cn(C(=O)OC(C)(C)C)c3ccccc23)CC2OC1(C)n1c3ccccc3c3c4c(c5c6ccccc6n2c5c31)C(=O)NC4 (stereo not shown) = 106
COC1C(N(C)Cc2ccc(-c3ccccc3)cc2)CC2OC1(C)n1c3ccccc3c3c4c(c5c6ccccc6n2c5c31)C(=O)NC4 (stereo not shown) = 91.9
COC1C(N(C)C(=O)C(N)Cc2ccc(O)cc2)CC2OC1(C)n1c3ccccc3c3c4c(c5c6ccccc6n2c5c31)C(=O)NC4 (stereo not shown) = 102

* * *

target: RPS6KA5 (Homo sapiens); construct: purchased Research Biology Corp. (http://www.reactionbiology.com); test: Kinase Profiler, residual kinase activity; assay type: biochemical; conditions: RPS6KA5; inhibitor at 500 nM; read-out: percentage of the remaining kinase activity
Sequence (O75582 whole entry): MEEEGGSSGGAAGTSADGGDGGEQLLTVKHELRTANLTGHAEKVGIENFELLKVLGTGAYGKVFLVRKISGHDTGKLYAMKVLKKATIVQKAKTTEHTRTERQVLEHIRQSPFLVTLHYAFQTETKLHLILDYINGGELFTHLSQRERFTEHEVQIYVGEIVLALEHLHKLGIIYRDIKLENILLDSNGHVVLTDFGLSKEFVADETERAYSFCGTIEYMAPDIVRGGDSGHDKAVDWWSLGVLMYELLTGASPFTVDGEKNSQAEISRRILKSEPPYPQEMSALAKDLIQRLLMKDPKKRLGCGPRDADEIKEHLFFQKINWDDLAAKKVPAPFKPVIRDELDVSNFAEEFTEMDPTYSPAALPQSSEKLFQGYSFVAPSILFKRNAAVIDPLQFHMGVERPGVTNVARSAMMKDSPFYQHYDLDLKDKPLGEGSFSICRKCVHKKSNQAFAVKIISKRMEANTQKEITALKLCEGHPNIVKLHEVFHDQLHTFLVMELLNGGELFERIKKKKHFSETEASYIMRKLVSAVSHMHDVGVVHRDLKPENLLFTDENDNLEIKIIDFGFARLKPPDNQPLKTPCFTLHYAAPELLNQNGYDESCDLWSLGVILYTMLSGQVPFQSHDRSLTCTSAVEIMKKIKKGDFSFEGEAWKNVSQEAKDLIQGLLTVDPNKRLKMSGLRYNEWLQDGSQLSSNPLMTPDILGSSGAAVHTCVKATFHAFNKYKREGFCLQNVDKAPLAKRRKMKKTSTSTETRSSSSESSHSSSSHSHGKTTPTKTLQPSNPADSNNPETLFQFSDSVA
parameter: remaining activity at 0.5 µM (%)

Examples from the recorded data:
COC1C(N(C)C(=O)C(N)CCC(=O)O)CC2OC1(C)n1c3ccccc3c3c4c(c5c6ccccc6n2c5c31)C(=O)NC4 (stereo not shown) = 1.8
COC1C(N(C)C(=O)C(N)Cc2ccc(OC(C)(C)C)cc2)CC2OC1(C)n1c3ccccc3c3c4c(c5c6ccccc6n2c5c31)C(=O)NC4 (stereo not shown) = 1.6
COC1C(N(C)C(=O)C(N)Cc2c[nH]cn2)CC2OC1(C)n1c3ccccc3c3c4c(c5c6ccccc6n2c5c31)C(=O)NC4 (stereo not shown) = 1.7
COC1C(N(C)Cc2ccc(-c3ccccc3)cc2)CC2OC1(C)n1c3ccccc3c3c4c(c5c6ccccc6n2c5c31)C(=O)NC4 (stereo not shown) = 5.2
COC1C(N(C)C(=O)C(N)CCC(=O)OC(C)(C)C)CC2OC1(C)n1c3ccccc3c3c4c(c5c6ccccc6n2c5c31)C(=O)NC4 (stereo not shown) = 3.3

[P] COC1C(N(C)C(=O)C(N)Cc2ccc(O)cc2)CC2OC1(C)n1c3ccccc3c3c4c(c5c6ccccc6n2c5c31)C(=O)NC4 (stereo not shown)
[Q] COC1C(N(C)C(=O)C(N)Cc2cn(C(=O)OC(C)(C)C)c3ccccc23)CC2OC1(C)n1c3ccccc3c3c4c(c5c6ccccc6n2c5c31)C(=O)NC4 (stereo not shown)
Between the two listed entries P and Q , which has its remaining activity at 0.5 µM at the higher number? Lab log: write the label of the selected item as the result. Q
(Q: 61.4%, P: 2.4%)

* * *

molecular target: AKT1 (Homo sapiens); assay: Kinase Profiler, residual kinase activity; type: biochemical; conditions: AKT1; inhibitor at 500 nM; read-out: percentage of the remaining kinase activity
Sequence (P31749 whole entry): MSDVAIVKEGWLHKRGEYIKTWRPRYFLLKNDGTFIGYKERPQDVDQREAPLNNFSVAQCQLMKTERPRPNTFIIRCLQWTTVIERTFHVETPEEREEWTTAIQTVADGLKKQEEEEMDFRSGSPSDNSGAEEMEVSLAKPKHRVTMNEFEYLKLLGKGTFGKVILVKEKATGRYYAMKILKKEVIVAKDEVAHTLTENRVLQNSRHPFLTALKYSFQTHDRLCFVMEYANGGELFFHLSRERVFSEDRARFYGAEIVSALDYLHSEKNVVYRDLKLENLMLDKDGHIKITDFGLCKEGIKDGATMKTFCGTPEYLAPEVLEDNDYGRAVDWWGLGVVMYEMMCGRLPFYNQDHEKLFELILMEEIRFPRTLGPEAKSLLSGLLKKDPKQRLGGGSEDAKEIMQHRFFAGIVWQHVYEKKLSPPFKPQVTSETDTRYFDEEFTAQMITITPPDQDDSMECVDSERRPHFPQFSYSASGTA
parameter: remaining activity at 0.5 µM (%)

[1] COC1C(N(C)C(=O)C(N)Cc2ccc(O)cc2)CC2OC1(C)n1c3ccccc3c3c4c(c5c6ccccc6n2c5c31)C(=O)NC4 (stereo not drawn) [Compound 5]
[2] COC1C(N(C)C(=O)C(N)CCC(=O)O)CC2OC1(C)n1c3ccccc3c3c4c(c5c6ccccc6n2c5c31)C(=O)NC4 (stereo not drawn) [Compound 7]
[3] COC1C(N(C)C(=O)C(N)Cc2c[nH]cn2)CC2OC1(C)n1c3ccccc3c3c4c(c5c6ccccc6n2c5c31)C(=O)NC4 (stereo not drawn) [Compound 1]
In this exercise, place the 3 molecules in ascending sequence of their recorded remaining activity at 0.5 µM. Sort and list the labels as requested. 3, 2, 1
